Decide using logP alone. Strictly below 2: yes (1). Equal to or above 2: no (0).

Determine whether this molecule shows logP lower than 2 (ties excluded): `CC(=O)Oc1ccccc1Cl`
no (0)

logP strictly < 2 for this molecule? `Cc1cccc(OCc2ccccc2)n1`
no (0)

Threshold test, logP < 2: `CC=Cc1c(OC)cc(Cc2cnc(N)nc2N)cc1OCC`
no (0)

Please state whether logP is below 2 for `CCCCOCCCC`
no (0)

# strict comparison: is reported logP < 2? input = `O=C1CCC(=O)N1c1cccc(I)c1`
yes (1)

Just wondering, is logP of `Oc1ccc(C2CCCCC2)cc1` below 2?
no (0)

# strict comparison: is reported logP < 2? input = `CCCCNC(=O)c1ccc(S(N)(=O)=O)cc1`
yes (1)

Determine whether this molecule shows logP lower than 2 (ties excluded): O=C(O)C1COc2ccccc2O1 (stereo unspecified)
yes (1)

A record lists `CNc1nc(-c2ccccc2)c2ccccc2n1` . Is its logP below 2?
no (0)

Check if logP falls below 2 for `O=[N+]([O-])c1ccc(OCCN2CCOCC2)cc1` .
yes (1)

API: query returns whether the molecule falls strictly under 2 in logP. Query: `Clc1cc(Cl)c(-c2ccccc2)c(Cl)c1`
no (0)

Is the reported logP for `Nc1cc(C(F)(F)F)cc(C(F)(F)F)c1` strictly below 2?
no (0)

In plain terms, does `Cn1c(N)nc2cc(Cl)ccc21` come in under 2 for logP?
no (0)

Just wondering, is logP of CNCC(O)c1ccc(O)cc1 (stereo unspecified) below 2?
yes (1)

I'd appreciate it if you could check whether `Oc1ccc(Nc2ccccc2)cc1` has logP smaller than 2.
no (0)

I wonder whether `CN1CC(=O)NC1=N` has logP below 2. Can you tell?
yes (1)

Take the molecule `CN1C(=O)C(=O)c2ccccc21` and say whether its logP is less than 2.
yes (1)

Criterion: logP strictly below 2. Is it met by `Oc1ccc(N=C=S)cc1` ?
no (0)

# TODO verify logP < 2 strictly for this molecule: `CN(C)CCN1c2ccccc2Sc2ccccc21`
no (0)

API: query returns whether the molecule falls strictly under 2 in logP. Query: `c1ccc(N=Nc2ccccc2)cc1`
no (0)

Here's an entry: `FC(F)(F)c1ccccc1` . Is its logP below 2?
no (0)

Dear colleague, could you confirm whether logP of `CC(C)OC(=O)c1ccccc1C(=O)OC(C)C` falls below 2? Thanks.
no (0)

Please indicate whether the reported logP of `Cn1cccn1` is strictly below 2.
yes (1)

Below 2 on logP? Entry `Cc1cc(O)c(C(C)C)cc1Cl`
no (0)

Does `OC(O)C(Cl)(Cl)Cl` have logP strictly under 2?
yes (1)

For this molecule, is logP lower than 2? `OCC(F)(F)C(F)(F)F`
yes (1)

Strictly below 2 in logP? `COc1cccc(N(C)C(=S)Oc2cccc(C(C)(C)C)c2)n1`
no (0)

Field: below-cutoff. Rule: recorded logP strictly less than 2. Subject: `O=Cc1ccc([N+](=O)[O-])cc1`
yes (1)

Check if logP falls below 2 for `O=c1[nH]cc(Cl)c(=O)[nH]1` .
yes (1)

Please determine if `C[C@H]1C[C@H]2[C@@H]3CCC4=CC(=O)C=C[C@]4(C)[C@@]3(F)[C@@H](O)C[C@]2(C)[C@@]1(O)C(=O)CCl` is below 2 in terms of logP.
no (0)

Decide: logP of `COP(=S)(OC)Oc1ccc([N+](=O)[O-])cc1Cl` strictly below 2?
no (0)

Determine if `Cc1ccc(NS(=O)(=O)C(F)(F)F)cc1` shows logP strictly lower than 2.
no (0)

Is 2 strictly greater than the molecule's reported logP? molecule: `Nc1ccc(F)cc1F`
yes (1)

Is 2 strictly greater than the molecule's reported logP? molecule: `CCCn1cnc([N+](=O)[O-])n1`
yes (1)

Bench note: check whether `O=Cc1ccc(Cl)cc1` shows logP below 2
no (0)

Hello, is logP of the following molecule strictly smaller than 2? `c1c[nH]nn1`
yes (1)

Item `OCC(O)CO` : logP beneath 2, strictly?
yes (1)

Does this molecule meet the criterion logP < 2? `OC[C@H]1O[C@@H](n2cnc3c(O)ncnc32)[C@H](O)[C@@H]1O`
yes (1)

Is the reported logP for `CCc1ccccc1OCC(=O)O` strictly below 2?
no (0)

Given `O=c1[nH]cnc2nc[nH]c12` , is recorded logP strictly lower than 2?
yes (1)

Is 2 strictly greater than the molecule's reported logP? molecule: `COc1c(O)c(OC)c(Cl)c(Cl)c1Cl`
no (0)

Decide: logP of `CN(C)C(=O)OCc1ccc(Br)cc1` strictly below 2?
no (0)

hey, is logP for `COC(=O)c1ccc(N=NN(C)C)cc1` lower than 2 or not?
no (0)

# check: logP < 2 for `ONc1ccccc1`
yes (1)

Lab log: compare recorded logP with 2; is it strictly lower for CC(=O)OCC1CCC(n2cnc3c(=O)[nH]cnc32)O1 (stereo unspecified) ?
yes (1)

Take the molecule `C=CNP(=O)(NC=C)NC(=O)c1cccc(OC)c1` and say whether its logP is less than 2.
yes (1)

Report whether reported logP is lower than 2 (strictly) for `CN(C)c1nc(Cl)nc(N(C)C)n1`
no (0)

logP strictly < 2 for this molecule? `c1ncc2nc[nH]c2n1`
yes (1)

# check: logP < 2 for `CCCCOc1cc(C(=O)NCCN(CC)CC)c2ccccc2n1`
no (0)

API: query returns whether the molecule falls strictly under 2 in logP. Query: `NC(=O)C(F)(F)F`
yes (1)

For this molecule, is logP lower than 2? `c1ccnnc1`
yes (1)

Lab note: confirm whether the reported logP for this molecule is below 2, equality not counting. molecule: `CCOC(=O)C(=Cc1ccccc1)C(C)=O`
no (0)

Lab note: confirm whether the reported logP for this molecule is below 2, equality not counting. molecule: `C=CCCCCCCCCC(=O)O`
no (0)

Determine whether this molecule shows logP lower than 2 (ties excluded): `CNN`
yes (1)

Check if logP falls below 2 for `CCCCOc1ccc(C(=O)OCCN(C)C)cc1` .
no (0)

hey, is logP for `COC(=O)c1ccsc1` lower than 2 or not?
yes (1)

API: query returns whether the molecule falls strictly under 2 in logP. Query: `CC(=O)NC(C)(C)C(N)=O`
yes (1)

# check: logP < 2 for `CC(=O)OCC(=O)[C@@]1(O)[C@H](OC(C)=O)C[C@H]2[C@@H]3CCC4=CC(=O)C=C[C@]4(C)[C@@]3(F)[C@@H](O)C[C@@]21C`
yes (1)

Take the molecule CCCC(=NOCC)C1C(=O)CC(C)(C)OC1=O (stereo unspecified) and say whether its logP is less than 2.
no (0)

I'd appreciate it if you could check whether `CC1CCCCC1` has logP smaller than 2.
no (0)
